# System: HEK293 cells
# test_protocol: Cell viability / cytotoxicity assay
# Assay type: cell-based, human
# condition_summary: CellTiter-Glo, 18 h
# key: entry, value: Cytotoxicity LD50
endpoint_label: Cytotoxicity LD50

>>> print(df.to_string())
                                   molecule     endpoint_label   result
0  CC1N=C(c2ccccc2F)c2cc(N3CCOCC3)ccc2NC1=O (stereo not drawn) [Compound 22]  Cytotoxicity LD50  >300 µM
1  CC1N=C(c2ccccc2F)c2cc(Nc3ccccc3C#N)ccc2NC1=O (stereo not drawn) [Compound 13]  Cytotoxicity LD50  >150 µM
2  CC1N=C(c2ccccc2F)c2cc(NC3CCCCC3)ccc2NC1=O (stereo not drawn) [Compound 26]  Cytotoxicity LD50  >300 µM
3  CC1N=C(c2ccccc2F)c2cc(Nc3ccc(C(F)(F)F)cc3)ccc2NC1=O (stereo not drawn) [Compound 12]  Cytotoxicity LD50  >150 µM
4  CC1N=C(c2ccccc2F)c2cc(N3CCCCC3)ccc2NC1=O (stereo not drawn) [Compound 23]  Cytotoxicity LD50  >300 µM
5  C[C@H]1N=C(c2ccccc2F)c2cc(Br)ccc2NC1=O [Compound 1]  Cytotoxicity LD50  >300 µM
6  CCc1ccccc1Nc1ccc2c(c1)C(c1ccccc1F)=NC(C)C(=O)N2 (stereo not drawn) [Compound 16]  Cytotoxicity LD50  >300 µM
7  CC1N=C(c2ccccc2F)c2cc(NC(C)(C)C)ccc2NC1=O (stereo not drawn) [Compound 25]  Cytotoxicity LD50  >300 µM
8  CC1N=C(c2ccccc2F)c2cc(N(C)C)ccc2NC1=O (stereo not drawn) [Compound 27]  Cytotoxicity LD50  >300 µM
